Target: T1, human PILRA, G78 variant, ectopically expressed on 293 cells (human, UniProt Q9UKJ1 20-303)
T1 construct: the cells are labelled G78; also called hA G78 OE; hA
T1 sequence (Q9UKJ1 other isoform, or with tags, fused parts or gaps mutant): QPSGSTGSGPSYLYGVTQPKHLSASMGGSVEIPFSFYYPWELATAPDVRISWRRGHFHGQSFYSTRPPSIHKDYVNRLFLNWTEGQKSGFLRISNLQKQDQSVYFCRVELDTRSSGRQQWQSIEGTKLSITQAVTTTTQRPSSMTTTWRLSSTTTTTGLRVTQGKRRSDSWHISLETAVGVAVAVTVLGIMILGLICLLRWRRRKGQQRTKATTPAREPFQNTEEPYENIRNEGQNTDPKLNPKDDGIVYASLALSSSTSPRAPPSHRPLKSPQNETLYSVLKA
Assay: flow cytometry, 293 cells expressing target
VALUE_KIND: EC50

>>> measured("D2 (antibody, V domains shown, second hybridoma campaign) VH: QIQLGQSGPELKRPRETVKISCKASGYTFTTYGMSWVKQAPGKGLRWMGWINTHSGVPAYADDFKGRFAFSLETSANTAFLQINNLENEDTATYFCAKDYNWGMDYWGQGTSVIVSS VL: QLVLTQSSSASFSLGASAKLTCTLSSQHSTYTIEWYQQQPLKPPKYVMEVKKDGSHSTGDGIPDRFSGSSSGADRYLSISNIQPEDEAIYICGVGDSIKEQFVYVFGGGTKVTVL")
"3.4 µg/mL"

Let us examine a further case.
Recorded EC50 of A15 (antibody, V domains shown, phage campaign) VH: QVQLVQSGAEVKKPGASVKVSCKASGGTFSNYGLTWVRQAPGQGLEWMGWINLNSGGTYYAQKFQGRVTMTRDTSTSTVYMELSSLRSEDTAVYYCARDRYSSGWYEGDAFDIWGQGTMVTVSS VL: DIQMTQSPSSLSASVGDRVTITCRASQGISNWLAWYQQKPGKAPKLLIYAASSLQSGVPSRFSGSGSGTDFTLTISSLQPEDFATYYCQQSYSTPWTFGPGTKVDIK , please. 0.2 µg/mL
